Provide the recorded selectivity ratio at 72 h for the entries that follow.
assay: Selectivity index, ratio of IC50 for human L02 cells to IC50 for human A549 cells assessed as reduction in cell viability measured after 72 hrs by MTT assay; assay type: toxicity; settings: L02 cells versus A549 cells, read-out: Ratio IC50

Sample records with selectivity ratio at 72 h:
COc1ccc(Nc2nc3c(c(Oc4cccc(NC(=O)C=C(C)C)c4)n2)CSCC3)cn1 ... > 2.97
CC/C=C/C(=O)Nc1cccc(Oc2nc(Nc3ccn(C)n3)nc3c2CSCC3)c1 ... > 1.36
COc1ccc(Nc2nc3c(c(Oc4cccc(NC(=O)/C=C/C(C)C)c4)n2)CSCC3)cc1 ... > 1.93
C=CC(=O)Nc1cccc(Oc2nc(Nc3cccc(C#N)c3)nc3c2CSCC3)c1 ... > 7.29
CC/C=C/C(=O)Nc1cccc(Oc2nc(Nc3ccc(OC)nc3)nc3c2CSCC3)c1 ... > 3.81

Parameter requested: selectivity ratio at 72 h. Apply to each item below.
1. COc1ccc(Nc2nc3c(c(Oc4cccc(NC(=O)/C=C/C(C)C)c4)n2)CSCC3)cn1
2. C=CC(=O)Nc1cccc(Oc2nc(Nc3ccc(OC)nc3)nc3c2CSCC3)c1
3. C/C=C/C(=O)Nc1cccc(Oc2nc(Nc3ccc(OC)nc3)nc3c2CSCC3)c1
4. C/C=C/C(=O)Nc1cccc(Oc2nc(Nc3cccc(OC)c3)nc3c2CSCC3)c1

Result:
["> 2.06", "> 3.43", "> 6.22", "> 2.37"]

Where these numbers come from: ChEMBL document CHEMBL4725402
